Sourced from ChEMBL document CHEMBL1201861

# System: P12-Ichikawa
# procedure-details: cells
# Type: functional, cell-based
# measurement-context: Homo sapiens
Could you please report measured IC50 for the items listed next?
Give bare numbers, in µM.

OC[C@H](Cc1ccccc1)Nc1nc(Oc2ccc3c(c2)CCC3)nc2c1ncn2Cc1ccc(-c2ccccc2)cc1
7.93

I need IC50 for every entry listed below, if you could help.
1. COc1ccc(-c2cc3nccn3c(Nc3ncccc3C(N)=O)n2)cc1OC
2. CN(NC(=O)CC(=O)NN(C)C(=S)c1ccccc1)C(=S)c1ccccc1 [ELESCLOMOL]

[4.37, 0.00404]

----------
# Tested on: NCI-H1963;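 also: cell growth inhibition of the human line, determined with a cell viability assay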
# procedure-details: cells
# Assay type: functional, cell-based, Homo sapiens
# measurement-context: Homo sapiens, NCI-H1963
# Description: SANGER: Inhibition of human NCI-H1963 cell growth in a cell viability assay.
Provide the reported IC50 of each item.

Consider the worked cases shown below.
C/C(=C\c1csc(C)n1)[C@@H]1C[C@@H]2O[C@]2(C)CCC[C@H](C)[C@H](O)[C@@H](C)C(=O)C(C)(C)[C@@H](O)CC(=O)O1 [PATUPILONE]
12 nM
Cc1cc(N2CCOCC2)cc2[nH]c(-c3c(NC[C@@H](O)c4cccc(Cl)c4)cc[nH]c3=O)nc12
> 5120 nM
Cc1ccc(NC(=O)c2ccc(CN3CCN(C)CC3)cc2)cc1Nc1nccc(-c2cccnc2)n1 [IMATINIB]
> 2000 nM
COc1cc(N2CCC(N3CCN(C)CC3)CC2)ccc1Nc1ncc(Cl)c(Nc2ccccc2S(=O)(=O)C(C)C)n1 [TAE-684]
> 2000 nM

Name the reported IC50 value associated with the molecule C=CC(=O)N1CCCC(Nc2nc(Nc3ccc(N(C)C(=O)CC)cc3)nc3[nH]cnc23)C1 (stereo not given)
> 10200 nM

----------
# Test system: NBsusSR;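 also: growth inhibition of the human cell line, read out with a cell viability assay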
# procedure-details: cells
# Assay type: functional, cell-based
# measurement-context: Homo sapiens
# Description: SANGER: Inhibition of human NBsusSR cell growth in a cell viability assay.
observation-type: pIC50
One number for each entry, as −log10 of the molar value.

The following compounds have reported results that may help.
CN(NC(=O)CC(=O)NN(C)C(=S)c1ccccc1)C(=S)c1ccccc1
8.50
O=C1NC(=O)c2c1c(-c1ccccc1Cl)cc1[nH]c3ccc(O)cc3c21
6.02

Proceed to the following item.
Requested read-out: pIC50. Entry: CS(=O)(=O)N1CCN(Cc2cc3nc(-c4cccc5[nH]ncc45)nc(N4CCOCC4)c3s2)CC1
6.31

----------
# System: HCT-15;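 also: cell viability readout, IC50 reflecting suppression of HCT-15 cell growth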
# procedure-details: cells
# Assay type: functional, cell-based
# measurement-context: Homo sapiens
# Description: SANGER: Inhibition of human HCT-15 cell growth in a cell viability assay.
observation-type: pIC50
Answers are plain numbers, as −log10 of the molar value.

Below: 2 molecules and their reported pIC50.
CN(NC(=O)CC(=O)NN(C)C(=S)c1ccccc1)C(=S)c1ccccc1 [ELESCLOMOL]
6.82
CCCCCCCCCCCC1=C(O)C(=O)C=C(O)C1=O [EMBELIN]
5.03

Proceeding to the next molecule to report its pIC50.
Hi! What's the reported pIC50 for O=S(=O)(O)c1ccc2cc(/N=N/c3cc(S(=O)(=O)O)c4cccnc4c3O)ccc2c1 on HCT-15?
4.80

----------
Can you tell me IC50 for the items I'm about to list?
# Test system: G-402
# procedure-details: cells
# Format: functional, cell-based
# measurement-context: Homo sapiens
# Description: SANGER: Inhibition of human G-402 cell growth in a cell viability assay.
Give bare numbers, in nM.

For orientation, consider the following solved cases.
CS(=O)(=O)N1CCN(Cc2cc3nc(-c4cccc5[nH]ncc45)nc(N4CCOCC4)c3s2)CC1 [PICTILISIB]
1900
NC(=O)Nc1cc(-c2cccc(F)c2)sc1C(=O)N[C@H]1CCCNC1 [AZD-7762]
64.6

Shift focus to the following entry.
Item C/C(=C\c1csc(C)n1)[C@@H]1C[C@@H]2O[C@]2(C)CCC[C@H](C)[C@H](O)[C@@H](C)C(=O)C(C)(C)[C@@H](O)CC(=O)O1 [PATUPILONE] with G-402 - IC50?
5.27

----------
# System: KOSC-2;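 also: growth inhibition of KOSC-2 cells, read out by a cell viability assay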
# procedure-details: cells
# Type: functional, cell-based
# measurement-context: Homo sapiens
# Description: SANGER: Inhibition of human KOSC-2 cell growth in a cell viability assay.
pIC50: −log10 of the molar value.
Assignment: determine reported pIC50 for the given compounds.

Reference set, count: 5
OC[C@H](Cc1ccccc1)Nc1nc(Oc2ccc3c(c2)CCC3)nc2c1ncn2Cc1ccc(-c2ccccc2)cc1
< 4.99
COc1ccc(-c2cc3nccn3c(Nc3ncccc3C(N)=O)n2)cc1OC
< 5.10
CN(C)CCOc1ccc(-c2nc(-c3ccncc3)c(-c3ccc4c(c3)CC/C4=N\O)[nH]2)cc1
< 5.30
CS(=O)(=O)N1CCN(Cc2cc3nc(-c4cccc5[nH]ncc45)nc(N4CCOCC4)c3s2)CC1
< 5.40
O=C(NCCCNc1nc(Nc2cccc(NC(=O)N3CCCC3)c2)ncc1I)c1cccs1
5.51

Then there is this compound:
// query pIC50 value for entry Cc1ccc(C(=O)Nc2ccc(CN3CCN(C)CC3)c(C(F)(F)F)c2)cc1C#Cc1cnc2cccnn12
< 6.29

----------
# System: HT1197
# procedure-details: cells
# Type: functional, cell-based, HT-1197
# measurement-context: Homo sapiens
# Description: SANGER: Inhibition of human HT-1197 cell growth in a cell viability assay.
observation-type: IC50

Each compound below has a reported value. Please supply its IC50.
1. COC(=O)[C@H](CCSC)NC(=O)c1ccc(NC[C@@H](N)CS)cc1-c1ccccc1
2. OC[C@H](Cc1ccccc1)Nc1nc(Oc2ccc3c(c2)CCC3)nc2c1ncn2Cc1ccc(-c2ccccc2)cc1
3. CS(=O)(=O)N1CCN(Cc2cc3nc(-c4cccc5[nH]ncc45)nc(N4CCOCC4)c3s2)CC1

> 1020 nM
> 10200 nM
> 4000 nM

Below is a list of compounds. For each, state its recorded IC50.
1. C/C(=C\c1csc(C)n1)[C@@H]1C[C@@H]2O[C@]2(C)CCC[C@H](C)[C@H](O)[C@@H](C)C(=O)C(C)(C)[C@@H](O)CC(=O)O1
2. O=C1NC(=O)c2c1c(-c1ccccc1Cl)cc1[nH]c3ccc(O)cc3c21

["> 32 nM", "> 2000 nM"]

----------
Give measured IC50 for each item. Keep answers brief.
# Test system: PANC-03-27
# procedure-details: cells
# Format: functional, cell-based
# measurement-context: Homo sapiens
# Description: SANGER: Inhibition of human PANC-03-27 cell growth in a cell viability assay.
Numbers only, in nM.

Worked cases, answers included:
OC[C@H](Cc1ccccc1)Nc1nc(Oc2ccc3c(c2)CCC3)nc2c1ncn2Cc1ccc(-c2ccccc2)cc1
7890
CO[C@@H]1[C@H](N(C)C(=O)c2ccccc2)C[C@H]2O[C@]1(C)n1c3ccccc3c3c4c(c5c6ccccc6n2c5c31)C(=O)NC4
160
C/C(=C\c1csc(C)n1)[C@@H]1C[C@@H]2O[C@]2(C)CCC[C@H](C)[C@H](O)[C@@H](C)C(=O)C(C)(C)[C@@H](O)CC(=O)O1
0.132

Lab note: next molecule to report on.
Look up IC50: NC(=O)Nc1cc(-c2cccc(F)c2)sc1C(=O)N[C@H]1CCCNC1
143

----------
# Test system: MDA-MB-361
# procedure-details: cells
# Assay type: functional, cell-based
# measurement-context: Homo sapiens
observation-type: IC50

NC(=O)Nc1cc(-c2cccc(F)c2)sc1C(=O)N[C@H]1CCCNC1
299 nM

Would you mind giving IC50 for every molecule in the list below?
1. CN(NC(=O)CC(=O)NN(C)C(=S)c1ccccc1)C(=S)c1ccccc1
2. CCCCCCCCCCCC1=C(O)C(=O)C=C(O)C1=O
3. COC(=O)[C@H](CCSC)NC(=O)c1ccc(NC[C@@H](N)CS)cc1-c1ccccc1
4. CS(=O)(=O)N1CCN(Cc2cc3nc(-c4cccc5[nH]ncc45)nc(N4CCOCC4)c3s2)CC1
5. NC1(c2ccc(-c3nc4ccn5c(=O)[nH]nc5c4cc3-c3ccccc3)cc2)CCC1

1. 25.9 nM
2. 19600 nM
3. > 1020 nM
4. 439 nM
5. 578 nM

----------
Give measured IC50 for each item. Keep answers brief.
# System: MDA-MB-175-VII
# procedure-details: cells
# Format: functional, cell-based
# measurement-context: Homo sapiens

Please review the entries below; each comes with its answer.
CC1(C)CCC(c2ccc(Cl)cc2)=C(CN2CCN(c3ccc(C(=O)NS(=O)(=O)c4ccc(N[C@H](CCN5CCOCC5)CSc5ccccc5)c(S(=O)(=O)C(F)(F)F)c4)cc3)CC2)C1
> 2000 nM
CS(=O)(=O)N1CCN(Cc2cc3nc(-c4cccc5[nH]ncc45)nc(N4CCOCC4)c3s2)CC1
353 nM

Give one value of IC50 per listed molecule.
1. Cc1ccc(-n2nc(C(C)(C)C)cc2NC(=O)Nc2ccc(OCCN3CCOCC3)c3ccccc23)cc1
2. COc1ccc(-c2cc3nccn3c(Nc3ncccc3C(N)=O)n2)cc1OC
3. C/C(=C\c1csc(C)n1)[C@@H]1C[C@@H]2O[C@]2(C)CCC[C@H](C)[C@H](O)[C@@H](C)C(=O)C(C)(C)[C@@H](O)CC(=O)O1

1: > 10000 nM; 2: > 8000 nM; 3: > 32 nM

# batch: return IC50 for each of the 2 molecules below
1. Cc1ccc(C(=O)Nc2ccc(CN3CCN(C)CC3)c(C(F)(F)F)c2)cc1C#Cc1cnc2cccnn12
2. O=S(=O)(O)c1ccc2cc(/N=N/c3cc(S(=O)(=O)O)c4cccnc4c3O)ccc2c1

1: > 512 nM; 2: > 16000 nM

What value of measured IC50 is listed for O=C(NCCCNc1nc(Nc2cccc(NC(=O)N3CCCC3)c2)ncc1I)c1cccs1 ?
> 5000 nM
